tgt: MAL^TIR (Homo sapiens)
Construct: MAL (residues 79–221); 6xHis; made in house; host or cells: E. coli BL21 (DE3)
assayProtocol: T‐Surf phage library (P8 and P3) selection against MAL^TIR, four rounds, NGS read counts
Format: binding
testContext: P3 library, selection against MAL, rank after grouping
metric: P3_MAL Rank (after)

YAFTRHLHRYLVQRAA 553
PEKDHGGENAIIKNIE 556
WHLHLRLRMHDLLQQM 537
YVFTGNLHRYLMQLGV 536
RSFREGLWRLLELRKQ 507
SSFREGLRRMLELTKI 515
RNFMSHLYQGLKNRGIFTF 502
YAFTGHLRRYMVQRGV 517
LKWGDPYFWRKIRYAM 530

###

tgt: MAL^TIR (Homo sapiens, UniProt P58753)
Construct: MAL (residues 79–221); 6xHis; made in house; host or cells: E. coli BL21 (DE3)
Sequence (P58753 79-221): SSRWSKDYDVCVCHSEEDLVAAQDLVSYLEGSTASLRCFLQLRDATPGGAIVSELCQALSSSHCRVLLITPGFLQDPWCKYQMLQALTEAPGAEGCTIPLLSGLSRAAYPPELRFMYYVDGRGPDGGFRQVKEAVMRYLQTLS
assayProtocol: T‐Surf phage library (P8 and P3) selection against MAL^TIR, four rounds, NGS read counts
Type: binding
testContext: P3 library, selection against MAL, rank by count after grouping
metric: P3_MAL Rank (after)

VEPTQVRTQSGAAENA 753
LGFLRHLRHHLQAKDH 693
KNLFYDLVSKNIRTFM 712
FAFTGQMLRYMVRSGL 717
SSFREGLWRPPELSEK 748
YAFTRHLHRYLVHRGV 714
PNLGTKTLNYLTRTKT 730
NGYGSELIKEIVDTGV 702
YAARANSGFHTFRDND 740
NQWRDPLTGDMILSGW 767
WFFPETGKIFEARKTI 709
AFFWEQLRPALKERLP 746
RVFLSHPRHHLQAKDP 700
RFWERPRYLTPSNNHR 769
RGFLSHLRHHLQVKEQ 733
NELVHVWSSKAHSPVG 731
DTALTNSGFHIFRDNE 689
LKWGDPYFLEQTALCD 771

###

tgt: MAL^TIR (Homo sapiens, UniProt P58753)
Construct: MAL (residues 79–221); 6xHis; made in house; host or cells: E. coli BL21 (DE3)
assayProtocol: T‐Surf phage library (P8 and P3) selection against MAL^TIR, four rounds, NGS read counts
Format: binding
testContext: P8_MAL: rank by count after grouping
metric: Rank (after)

AFLYTFLKNLTHPTTF 97
LFFWESLKQLLRSDG 178

(P) SFLHFLLFSRPDTEYI
(Q) AFLYTFLLNLTHPTHF
### Prompt Select one: P or Q . Criterion: greater recorded Rank (after). Provide the label of your selected option as the answer.
### Response P
(P: 413, Q: 162)

(1) TFLGNLYNALVKAGIH
(2) KLFQQWIELHLHQLHL
### Prompt Smaller Rank (after) value? Options are 1 and 2 Kindly state the label of the option you pick.
### Response 1
(1: 135, 2: 436)

(I) RNFGNSCVPCWANRR
(II) RNFVAYLVQALAKKGI
(III) YTALTNSGFHTFRDND
### Prompt Ascending by Rank (after), please: list the sequences accordingly. Respond with an ordered listing of the labels, as requested.
### Response III, II, I
(III: 105, II: 160, I: 392)

(I) WFYERLVSMVLRDTKV
(II) AFFWEQLRTLLGQPTM
(III) SFYERLVRLILRDTTV
### Prompt Let's sort these by Rank (after), smallest first. Go ahead? Provide the ranking by listing each label in its place in the requested order.
### Response II, III, I
(II: 127, III: 189, I: 406)

###

tgt: MAL^TIR (Homo sapiens, UniProt P58753)
Construct: MAL (residues 79–221); 6xHis; made in house; host or cells: E. coli BL21 (DE3)
assayProtocol: T‐Surf phage library (P8 and P3) selection against MAL^TIR, four rounds, NGS read counts
Type: binding
testContext: P8_MAL: rank by count before grouping
metric: Rank (before)

WFYERLLSLVLRDTKV 1248
WFYARLVRLILRDPKV 1135
YFLHFLLFSRPNRVY 1488
WDDPWFWDKLHYAMPR 1422
WFLSAFLIPMAQLADT 1352

(I) AFLYTFLVNLTHPPNF
(II) WFYERLVNLNLRDTKV
(III) NLLYDLLRWLGIRAFL
### Prompt Let's sort these by Rank (before), smallest first. Go ahead? Your reply should list the labels following the order given in the request.
### Response II, I, III
(II: 1242, I: 1827, III: 2677)

(P) GCYERLVSLILRDTKV
(Q) QLIQQWSELHLHQLQL
(R) KLFWAICIMRWCRRAF
### Prompt Please list these sequences in decreasing order of Rank (before). Give the labels in the order specified.
### Response Q, P, R
(Q: 2381, P: 1571, R: 1070)

(1) AFLYTFLKNLTHTPTF
(2) WFYERLFSLILRATKV
### Prompt Response body: label of entry with the larger Rank (before); valid values 1 , 2 . # answer = label of selected item
### Response 1

(a) AFLYAFLNNLTHPTTF
(b) WFYERLVSHMLRDTKV
### Prompt Field: lower Rank (before) | Options: a / b Lab log: write the label of the selected item as the result.
### Response b
(b: 1232, a: 1767)

(A) LFFWESLKQLLRAMA
(B) WFIIKFRTVLDRVNDV
### Prompt Param metric = Rank (before); output whichever of A , B has the minimum value. Give the label of your selection.
### Response B
(B: 1372, A: 2095)

(I) YFLHSLLISLTDPAYI
(II) RNYVAYLFQALASKGI
(III) HFFWIQLKAFWAKPA
### Prompt Sort (3 sequences) by Rank (before): min first. Write out the labels following the order that was asked for.
### Response III, I, II
(III: 992, I: 1510, II: 2249)

(a) AFLYTFLNNLTHPTKF
(b) WFYERLVSLILRNTRV
### Prompt Between item a and item b , which reported Rank (before) is smaller? // output: label of the selected item
### Response b
(b: 1290, a: 1870)

(I) SLLYDYLRCLGIRAIL
(II) WFYELLVSLIVRDTKV
### Prompt Could you kindly indicate whether I or II has the higher Rank (before) value? When you have decided, please share the label of that item.
### Response I
(I: 2493, II: 1150)

###

tgt: MyD88^TIR (Homo sapiens, UniProt Q99836)
Construct: MyD88 (residues 148–296); 6xHis; made in house; host or cells: E. coli BL21 (DE3)
Sequence (Q99836 148-296): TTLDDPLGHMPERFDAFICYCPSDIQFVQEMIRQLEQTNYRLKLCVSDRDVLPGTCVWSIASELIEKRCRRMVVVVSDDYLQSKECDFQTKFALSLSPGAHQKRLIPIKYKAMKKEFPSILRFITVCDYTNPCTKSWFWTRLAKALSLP
assayProtocol: T‐Surf phage library (P8 and P3) selection against MyD88^TIR, four rounds, NGS read counts
Format: binding
testContext: P8_MyD88: rank by NGS read count after grouping
metric: Rank (after)

DPQDLDWFYERVVGLF 914
ELDFSHFWLFDGHATGAA 1003
YITWFDDIQQIQVFWV 978
VQWDELLQILHARELF 965
GLSWGPYEWWIDLYDA 889
LGYHWIEWEDFVVIED 872
YASSSWYLDELVRSLW 897
LGYDWIVWAYFVGIED 894
WVLHKVLQILHAREIY 976
DPQDLDWFSERLVILF 1012
SAAYYEFGERLIGRVE 873
LEYRWIDWEYFVGLED 886
DWVWDYLLQSGRPSG 932
DRSIWDRLLYSLHVTE 996
PQDLEWFYERMVGLIL 879
DPQDLVWFYERPVSIF 909
YELDFSHFCCLMARR 929
WALVKLLKILYANDTM 949

###

tgt: MAL^TIR (Homo sapiens, UniProt P58753)
Construct: MAL (residues 79–221); 6xHis; made in house; host or cells: E. coli BL21 (DE3)
assayProtocol: T‐Surf phage library (P8 and P3) selection against MAL^TIR, four rounds, NGS read counts
Type: binding
testContext: P8 library, selection against MAL, rank before grouping
metric: P8_MAL Rank (before)

AFLYTFLNNLTHTTNI 1872
YVLHFLLFSRREPEYI 1524
WFNIRLVTVLDHVNDV 1391
RNLLAYLRWAVANTVI 2312
WFYNHLVSLFLRDTKV 1306
EFVLTFVINLTPRTSF 2041
TFLGHLYIAMVQAAIH 2559

(A) WFYERLLTVIDRDTEV
(B) HFFWFKLKSILGETSF
### Prompt Please compare: A and B . Report which one has the smaller P8_MAL Rank (before) value. Respond with the label that goes with your answer.
### Response A

###

tgt: MAL^TIR (Homo sapiens, UniProt P58753)
Construct: MAL (residues 79–221); 6xHis; made in house; host or cells: E. coli BL21 (DE3)
assayProtocol: T‐Surf phage library (P8 and P3) selection against MAL^TIR, four rounds, NGS read counts
Format: binding
testContext: P8_MAL: rank by count after grouping
metric: Rank (after)

Answered cases to consult:
TFLGHLHNALVQAGNH 432
QLIQQWMNCTCTSCI 167
TFLGPLLNALVQAGIH 388
WFWDKLKYALPHRYEP 113
AVLYTFLINLTHPTKF 460
AVRYTILINLTHTTNF 462
TFLGHLSNGLVQAGIH 478
WFYERPVSLILRDTIV 153
AFFWAQPKSVLGNPTV 103
AYLNTFLINLTHPTNF 149

(A) YAASPWWFDELVKIVG
(B) AFFWEQLRTVLGKPR
(C) AFLYTFLINLTHPPI
### Prompt Which order do these items take when sorted by rising Rank (after)? List them. Give your ranking as a list of the labels in the requested order.
### Response B, C, A
(B: 130, C: 190, A: 390)

(I) LFFWASLKNLLRSAGS
(II) SEFIQKIILCMNQKIV
(III) WLYERLVSLILRDTQV
### Prompt Order field: Rank (after) | Direction: descending (largest first) Your task in answering is to list the labels in the requested order.
### Response I, II, III
(I: 389, II: 155, III: 108)
